B1: TRAF3IP2 (parent)
chain: FMEKRNQWLVSQLSAASPDTGHDS

Variants of: B1
measurement.protocol: protein stability index of a GFP-peptide fusion (GPS, HEK-293T) (PSI 1-6); higher = more stable;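 further: lentivirally expressed fusions sorted by FACS into six bins by GFP to DsRed ratio, PSI derived from sequencing read proportions per bin multiplied by bin number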
reported.conditions: c terminus: a fixed tail appended
observed.property: protein stability index
Please state the value as a number alone, without comment.

I am curious: what protein stability index value has been reported for H22N ?
2.59

I am curious: what protein stability index value has been reported for Q12L ?
1.65

I am curious: what protein stability index value has been reported for E3H ?
1.71

I am curious: what protein stability index value has been reported for E3P ?
1.93

I am curious: what protein stability index value has been reported for D23Y ?
1.75

I am curious: what protein stability index value has been reported for R5W ?
3.1

I am curious: what protein stability index value has been reported for S14H ?
2.48

I am curious: what protein stability index value has been reported for W8L ?
4.45

I am curious: what protein stability index value has been reported for L13Q ?
2.5

Sourced from the supplement of paper PMC10567573
